Tested on: HCT116 MTAP+/+
experiment: Inhibition of cellular proliferation (Cell Titer Glo), HCT116 WT (MTAP+/+)
Format: cell-based
condition_context: Homo sapiens, HCT-116, 120 h, 5 days treatment
readout_name: pIC50
Numbers only, as −log10 of the molar value.

In: Please give measured pIC50 of the following entry: C#CCNc1nc(=O)n(-c2cccnc2C)c2cc(C(F)(F)F)cc(OC)c12 [Compound 1 Freebase Type A]
Out: 4.68

====

For each of the compounds below, state its water uptake up to 80% RH.
experiment: Hygroscopicity evaluation (DVS)
Format: physicochemical
condition_context: DVS isotherm at 25 °C between 0% RH and 95% RH
Structures can show the parent of a compound that is named as a salt.

Please review the entries below; each comes with its answer.
compound	water uptake up to 80% RH
C#CCNc1nc(=O)n(-c2cccnc2C)c2cc(C(F)(F)F)cc(OC)c12 [Compound 1 Freebase Type B]	~ 11.6%
C#CCNc1nc(=O)n(-c2cccnc2C)c2cc(C(F)(F)F)cc(OC)c12 [Compound 1 maleate salt Type A]	~ 0.07%
C#CCNc1nc(=O)n(-c2cccnc2C)c2cc(C(F)(F)F)cc(OC)c12 [Compound 1 Freebase Type C]	~ 6.7%

Can you give me water uptake up to 80% RH for all of these, one by one?
1. C#CCNc1nc(=O)n(-c2cccnc2C)c2cc(C(F)(F)F)cc(OC)c12 [Compound 1 citrate salt Type A]
2. C#CCNc1nc(=O)n(-c2cccnc2C)c2cc(C(F)(F)F)cc(OC)c12 [Compound 1 Freebase Type A]

Out:
1.6%
~ 0.3%
